The entries below come with measured pIC50 values attached.
System: Plasmodium falciparum
PROCEDURE_TEXT: Antimalarial activity against Plasmodium falciparum W2 assessed as plasmodial LDH activity after 72 hrs
Assay type: functional, organism-based
REPORTED_CONDITIONS: Plasmodium falciparum, W2, 72 h; read-out: IC50
pIC50 is defined as minus the log10 of a concentration measured in mol/L.

Example cases with answers are listed next.
Cc1ccc(C2OOC(c3ccc(/C=N\c4ccc(Br)cc4)cc3)OO2)cc1 (stereo not drawn) : 5.39
Cc1ccc(C2OOC(c3ccc(CNc4cccc(C)c4)cc3)OO2)cc1 (stereo not drawn) : 5.62
Cc1ccc(C2OOC(c3ccc(CNc4cccnc4)cc3)OO2)cc1 (stereo not drawn) : 6.24

Task: May I ask what pIC50 has been recorded for Cc1ccc(C2OOC(c3ccc(/C=N/CCc4ccccc4)cc3)OO2)cc1 (stereo not drawn) ?
Output: 5.83

Task: What does the record list as pIC50 for CCc1ccc(C2OOC(c3ccc(COS(C)(=O)=O)cc3)OO2)cc1 (stereo not drawn) ?
Output: 5.40

Task: Please give the measured pIC50 for this molecule: Cc1ccc(C2OOC(c3ccc(/C=N/C4CCCCC4)cc3)OO2)cc1 (stereo not drawn)
Output: 5.73

Task: Consider the molecule Cc1ccc(C2OOC(c3ccc(COS(C)(=O)=O)cc3)OO2)cc1 (stereo not drawn) and give its measured pIC50.
Output: 5.09

Task: State the recorded pIC50 for this entry: CCc1ccc(C2OOC(c3ccc(C(=O)NCCO)cc3)OO2)cc1 (stereo not drawn)
Output: 5.12

----------
PROCEDURE_TEXT: Selectivity index, IC50 for african green monkey Vero cells to IC50 for Plasmodium falciparum D6
Format: functional
Each entry below carries its reported Ratio IC50.

Worked cases, Ratio IC50 given:
CCCCNC(=O)c1ccc(C2OOC(c3ccc(CC)cc3)OO2)cc1 (stereo not drawn) : >1.9
OCc1ccc(C2OOC(c3ccccc3)OO2)cc1 (stereo not drawn) : >5.6

Here is another molecule to look at.
Task: I'd like to know its Ratio IC50. The molecule in question is Cc1ccc(C2OOC(c3ccc(/C=N\c4cccnc4)cc3)OO2)cc1 (stereo not drawn)
Output: >17.6

----------
Entries and their IC50 values follow.
Test system: Plasmodium falciparum
PROCEDURE_TEXT: Antimalarial activity against Plasmodium falciparum W2 assessed as plasmodial LDH activity after 72 hrs
Format: functional, organism-based
REPORTED_CONDITIONS: Plasmodium falciparum, W2, 72 h; read-out: IC50
Expressed in nM, but write only the number.

Worked cases, IC50 given:
Cc1ccc(C2OOC(c3ccc(/C=N\c4ccccc4)cc3)OO2)cc1 (stereo not given) : 5530
Cc1ccc(C2OOC(c3ccc(C(=O)NCCc4ccccc4)cc3)OO2)cc1 (stereo not given) : 2090
Cc1ccc(C2OOC(c3ccc(/C=N\c4cccnc4)cc3)OO2)cc1 (stereo not given) : 800

Task: Name the reported IC50 value associated with the molecule C[C@@H]1CC[C@H]2[C@@H](C)C(=O)O[C@@H]3O[C@@]4(C)CC[C@@H]1[C@]32OO4 [ARTEMISININ]
Output: 25

Task: Name the recorded IC50 for CCc1ccc(C2OOC(c3ccc(C(=O)NCCCO)cc3)OO2)cc1 (stereo not given) .
Output: 4820

----------
Entries and their measured Ratio IC50 follow.
PROCEDURE_TEXT: Selectivity index, IC50 for african green monkey Vero cells to IC50 for Plasmodium falciparum D6
Type: functional

Task: Find the recorded Ratio IC50 belonging to Cc1cccc(C2OOC(c3ccc(CO)cc3)OO2)c1 (stereo unspecified) and report it.
Output: >12.9
